- test: Microsomal stability assay, rat liver microsomes (RLM)
- Type: in vitro ADME
- experimental-parameters: rat liver microsomes 0.5 mg/mL, 1 uM substrate, 2 mM NADPH, 37° C., vs time zero control
measured-parameter: RLM (% remaining @ 30 minutes)

molecule-smiles	endpoint-value
O=C(Nc1cc[nH]c(=O)c1)c1ccc(C(F)(F)F)cc1OCCCC(F)(F)F	98%
COc1cc(F)ccc1Oc1ccc(C(F)(F)F)cc1C(=O)Nc1cc[nH]c(=O)c1	78%
O=C(Nc1cc[nH]c(=O)c1)c1cc(C(F)(F)F)ccc1Oc1ccccc1OC(F)(F)F	95%
Cc1cc(F)ccc1Oc1ccc(Cl)cc1C(=O)Nc1cc[nH]c(=O)c1	72%
O=C(Nc1cc[nH]c(=O)c1)c1ccc(C(F)(F)F)cc1Oc1ccc(F)cc1F	99%
O=C(Nc1cc[nH]c(=O)c1)c1cc(OC(F)(F)F)ccc1Oc1ccc(F)cc1F	110%
Cc1cc(F)ccc1Oc1ccc(C(F)(F)F)cc1C(=O)Nc1cc[nH]c(=O)c1	91%
CC(C)(C)c1ccc(C(=O)Nc2ccc(=O)[nH]c2)c(Oc2ccc(C(F)(F)F)nc2)c1	50%

---

- test: Microsomal stability assay, human liver microsomes (HLM)
- Assay type: in vitro ADME
- experimental-parameters: human liver microsomes 0.5 mg/mL, 1 uM substrate, 2 mM NADPH, 37° C., vs time zero control
Reported HLM (% remaining @ 30 minutes) is given for each of the following compounds.
measured-parameter: HLM (% remaining @ 30 minutes) (%)

compound	measured-parameter	endpoint-value
CCOc1ccc(Oc2ccc(C(F)(F)F)cc2C(=O)Nc2cc[nH]c(=O)c2)cc1 [Compound 44]	HLM (% remaining @ 30 minutes)	93
O=C(Nc1cc[nH]c(=O)c1)c1cc(C(F)(F)F)ccc1Oc1ccccc1OC(F)F [Compound 76]	HLM (% remaining @ 30 minutes)	97
O=C(Nc1cc[nH]c(=O)c1)c1cc(OC(F)(F)F)ccc1Oc1ccc(F)cc1F [Compound 33]	HLM (% remaining @ 30 minutes)	100
O=C(Nc1cc[nH]c(=O)c1)c1ccc(C(F)(F)F)cc1OCC1CCCC1 [Compound 120]	HLM (% remaining @ 30 minutes)	87
Cc1cc(F)ccc1Oc1cc(C(F)(F)F)ccc1C(=O)Nc1cc[nH]c(=O)c1 [Compound 10]	HLM (% remaining @ 30 minutes)	93
O=C(Nc1cc[nH]c(=O)c1)c1cc(C(F)(F)F)ccc1Oc1ccc(F)cc1 [Compound 2]	HLM (% remaining @ 30 minutes)	100
O=C(Nc1cc[nH]c(=O)c1)c1cc(C(F)(F)F)ccc1Oc1ccc(OC(F)(F)F)cc1 [Compound 72]	HLM (% remaining @ 30 minutes)	100
Cc1cc(F)ccc1Oc1ccc(C(F)(F)F)cc1C(=O)Nc1cc[nH]c(=O)c1 [Compound 31]	HLM (% remaining @ 30 minutes)	92
Cc1cc(F)ccc1Oc1ccc(Cl)cc1C(=O)Nc1cc[nH]c(=O)c1 [Compound 68]	HLM (% remaining @ 30 minutes)	98
O=C(Nc1cc[nH]c(=O)c1)c1ccc(C(F)(F)C(F)(F)F)cc1Oc1ccc(F)cc1 [Compound 88]	HLM (% remaining @ 30 minutes)	100
O=C(Nc1cc[nH]c(=O)c1)c1cc(OC(F)(F)F)ccc1Oc1ccc(F)cc1Cl [Compound 37]	HLM (% remaining @ 30 minutes)	100
O=C(Nc1cc[nH]c(=O)c1)c1cc(F)ccc1Oc1ccc(OC(F)(F)F)cc1 [Compound 101]	HLM (% remaining @ 30 minutes)	97
COc1cc(F)ccc1Oc1cc(C(F)(F)C(F)(F)F)ccc1C(=O)Nc1cc[nH]c(=O)c1 [Compound 111]	HLM (% remaining @ 30 minutes)	91
O=C(Nc1cc[nH]c(=O)c1)c1ccc(C(F)(F)F)cc1Oc1ccc(F)cc1F [Compound 7]	HLM (% remaining @ 30 minutes)	97
COc1cc(F)ccc1Oc1cc(Cl)c(Cl)cc1C(=O)Nc1cc[nH]c(=O)c1 [Compound 114]	HLM (% remaining @ 30 minutes)	91
O=C(Nc1cc[nH]c(=O)c1)c1cc(Cl)ccc1Oc1ccc(F)cc1Cl [Compound 66]	HLM (% remaining @ 30 minutes)	100
Cc1ccccc1Oc1ccc(C(F)(F)F)cc1C(=O)Nc1cc[nH]c(=O)c1 [Compound 28]	HLM (% remaining @ 30 minutes)	79
CC(C)(C)c1ccc(C(=O)Nc2ccc(=O)[nH]c2)c(Oc2ccc(C(F)(F)F)nc2)c1 [Compound 142]	HLM (% remaining @ 30 minutes)	38
O=C(Nc1cc[nH]c(=O)c1)c1cc(C(F)(F)F)ccc1Oc1ccccc1OC(F)(F)F [Compound 75]	HLM (% remaining @ 30 minutes)	90
COCCOc1ccc(Oc2cc(C(F)(F)F)ccc2C(=O)Nc2cc[nH]c(=O)c2)cc1 [Compound 8]	HLM (% remaining @ 30 minutes)	90
COc1cc(F)ccc1Oc1ccc(C(F)(F)F)cc1C(=O)Nc1cc[nH]c(=O)c1 [Compound 30]	HLM (% remaining @ 30 minutes)	76
